subject of test: T1, hErbB3.mFc (soluble dimeric human ErbB3 extracellular domain fused to mouse Fc) (human)
T1 construct: called dimeric
T1 chain: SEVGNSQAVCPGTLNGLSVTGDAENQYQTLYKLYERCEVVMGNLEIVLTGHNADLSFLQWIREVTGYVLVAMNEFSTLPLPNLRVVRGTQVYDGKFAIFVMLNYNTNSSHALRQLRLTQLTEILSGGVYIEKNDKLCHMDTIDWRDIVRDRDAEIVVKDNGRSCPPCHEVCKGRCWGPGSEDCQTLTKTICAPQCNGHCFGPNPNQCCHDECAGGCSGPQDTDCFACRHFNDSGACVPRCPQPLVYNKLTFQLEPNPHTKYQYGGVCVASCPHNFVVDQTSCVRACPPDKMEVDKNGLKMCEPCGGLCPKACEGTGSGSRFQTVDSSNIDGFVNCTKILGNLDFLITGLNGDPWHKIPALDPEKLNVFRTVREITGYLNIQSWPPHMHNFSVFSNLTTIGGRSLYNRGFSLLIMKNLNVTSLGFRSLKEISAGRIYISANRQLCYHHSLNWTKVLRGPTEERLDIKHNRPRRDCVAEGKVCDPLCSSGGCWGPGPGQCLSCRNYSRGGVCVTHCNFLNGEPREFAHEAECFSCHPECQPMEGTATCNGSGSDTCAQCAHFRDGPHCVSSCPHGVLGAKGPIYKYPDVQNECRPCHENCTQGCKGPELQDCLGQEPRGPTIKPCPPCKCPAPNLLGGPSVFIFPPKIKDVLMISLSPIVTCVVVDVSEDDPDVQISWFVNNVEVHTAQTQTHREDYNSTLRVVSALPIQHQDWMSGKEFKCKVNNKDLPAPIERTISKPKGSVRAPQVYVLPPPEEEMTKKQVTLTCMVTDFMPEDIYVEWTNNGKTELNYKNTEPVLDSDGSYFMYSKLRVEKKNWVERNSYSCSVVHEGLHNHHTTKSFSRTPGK
assay notes: SPR (Biacore), 25 C, mAb capture format
Description: (Tables 2-4). Measurements were conducted on a Biacore 2000 or T100 instrument. […] Kinetic association (kₐ) and dissociation (kd) rate constants were determined by processing and fitting the data to a 1:1 binding model using Scrubber 2.0 curve fitting software.
assay metric: Kd (pM)
Just the number please, in pM, no unit attached.

binder: H4H2143P (antibody, V domains shown, Fully human, human IgG4 Fc (H4H prefix)) VH: EVQLVESGGGLVQPGRSLRLSCAASGFTFGDYAMHWVRQAPGKGLEWVSGINLNSGTIGYADSVKGRFTISRDNAKNSLYLQMNSLRAEDTAFYYCAKDIDGYYHYAMDVWGQGTTVTVSS VL: DVVMTQSPSFLSASVGDRVTITCWASQGISSYLAWYQQKPGKAPKLLIYDASTLESGVPSRFSGSGSGTEFTLTISNLQPEDFATYYCQQVNSYPLTFGGGTKVEIKR
Kd [pM]: 1.75

# ---- query binder ----
Asked: Quick one: Kd of H4H2092P (antibody, V domains shown, Fully human, human IgG4 Fc (H4H prefix)) VH: EVQLVESGGGVVRPGGSLRLSCAASGFTFEDYGMNWVRQVPGKGLEWVSGTNWNGGITGYTGSVKGRFTISRDNAKNSLYLQMNSLRAEDTALYHCARDSGDQDAFDIWGQGTMVTVSS VL: DIQLTQSPSFLSASVGDRVTITCWASQDISSYLAWYQQKPGKAPKLLIYAASTFQSGVPSRFSGSGSGTEFTLTISNLQPEDFATYYCQQLDSYPLSFGGGTKVEIKR ?
Given back: 1.45

Attribution: patent US20140072563A1
